molecular target: UniProt Q92633; assay: Beta-Arrestin based assay for human LPA1R antagonists (PathHunter); settings: CHO cells stably expressing ProLink tagged human LPA1R; agonist LPA 0.5 micromolar
Sequence (Q92633 whole entry): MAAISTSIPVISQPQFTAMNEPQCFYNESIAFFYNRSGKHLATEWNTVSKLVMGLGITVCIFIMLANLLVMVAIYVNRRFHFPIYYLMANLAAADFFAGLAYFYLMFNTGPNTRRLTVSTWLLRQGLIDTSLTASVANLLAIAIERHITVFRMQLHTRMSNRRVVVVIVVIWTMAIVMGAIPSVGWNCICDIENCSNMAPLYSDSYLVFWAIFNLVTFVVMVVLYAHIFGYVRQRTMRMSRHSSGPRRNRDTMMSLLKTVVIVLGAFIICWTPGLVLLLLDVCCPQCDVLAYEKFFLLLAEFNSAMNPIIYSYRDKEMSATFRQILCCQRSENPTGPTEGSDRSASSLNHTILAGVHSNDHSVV
pEC50: −log10 of the molar value.
READOUT_TYPE: pEC50

In: For the compound Cc1nsc(-c2ccc(-c3ccc(C4(C(=O)O)CC4)cc3)nc2)c1NC(=O)O[C@H](C)c1ccccc1Cl , what pEC50 is on record?
Out: 6.30 to 7.30

In: For the compound Cc1nsc(-c2cc(F)c(-c3ccc(C4(C(=O)O)CC4)cc3)cc2Cl)c1NC(=O)O[C@H](C)c1ccccc1Cl , what pEC50 is on record?
Out: > 7.30

In: For the compound Cc1noc(-c2ccc(-c3ccc(C4CCOCC4C(=O)O)cc3)cc2)c1NC(=O)O[C@H](C)c1ccccc1Cl (stereo partly shown) , what pEC50 is on record?
Out: > 7.30

In: For the compound Cc1nsc(C#Cc2ccc3cc(CC(=O)O)ccc3c2)c1NC(=O)O[C@H](C)c1ccccc1 , what pEC50 is on record?
Out: 6.30 to 7.30
